The origin of these recorded values is the supplement of paper PMC8285479.

Collected normalised cell viability values appear next to each entry.
- Tested on: NCI-H1944;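 further: CTB read-out in 384-well plates, triplicate wells, NPI normalised per plate against 1 µM phenylarsine oxide (0) and 0.1% DMSO (1) controls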
- experimental-protocol: normalised cell viability (NPI; 0 = phenylarsine oxide control, 1 = DMSO control) (fraction of DMSO control); NCI-H1944 is a non-small cell lung cancer line; higher = more viable cells (less compound toxicity)
- measurement-parameters: glucocorticoid arm: hydrocortisone 2.75 uM pre-treated 2 days and continued; compound 1 µM; 6 days
Where a name gives a salt, the structure may show the parent alone. Over roughly 1,900 compounds, “normalised cell viability (NPI; 0 = phenylarsine oxide control, 1 = DMSO control)” has its median near 1; the lowest 2% begin near 0.039. For the sample, the lowest values were picked, then their nearest neighbours and some compounds at random.
Give the figure only, with no unit attached.

O=Nc1c(-c2c(O)[nH]c3cc(Br)ccc23)[nH]c2ccccc12 : 1.13
COc1cc(CC(=O)O)ccc1O [4-Hydroxy-3-methoxyphenylacetic acid] : 1.01
CC(=O)O[C@H]1C(=O)[C@@]2(C)[C@H]([C@H](OC(=O)c3ccccc3)[C@]3(O)C[C@H](OC(=O)[C@H](O)[C@@H](NC(=O)c4ccccc4)c4ccccc4)C(C)=C1C3(C)C)[C@]1(OC(C)=O)CO[C@@H]1C[C@@H]2O [Paclitaxel; Taxol] : 0.466
CN1CCN(C2Cc3ccccc3Sc3ccc(Cl)cc32)CC1 (racemic) [(±)-Octoclothepin maleate] : 1.01
C[C@@H]1C(=O)O[C@H]2C[C@@]34[C@H]5C[C@@H](C(C)(C)C)[C@]36[C@@H](OC(=O)[C@@H]6O)O[C@@]4(C(=O)O5)[C@]21O [Ginkgolide A] : 0.994

Name the recorded normalised cell viability of the item COc1cc(OC)c(/C=C/S(=O)(=O)Cc2ccc(OC)c(NCC(=O)O)c2)c(OC)c1 in your answer. 0.572

Name the recorded normalised cell viability of the item CC(=O)O[C@H]1C(=O)[C@@]2(C)[C@H]([C@H](OC(=O)c3ccccc3)[C@]3(O)C[C@H](OC(=O)[C@H](O)[C@@H](NC(=O)c4ccccc4)c4ccccc4)C(C)=C1C3(C)C)[C@]1(OC(C)=O)CO[C@@H]1C[C@@H]2O [Taxol] in your answer. 0.851
